meta.source: a melting point compilation (Tetko et al.)

# melting point values compiled below

Cc1n[nH]c2c1c(=O)n(-c1ccccc1)c1ccccc21 :: 162 to 163 °C
CS(=O)(=O)c1ccccc1S(=O)(=O)Cl :: 133 to 138 °C
CCCCCCCCCCCCOc1ccc(C=O)cc1OCCCCCCCCCCCC :: 70 to 73 °C
COc1ccc(F)cc1C=O :: 41 to 46 °C
Cc1nc(-c2cccc(C(=O)O)c2)cs1 :: 200 to 201 °C

Consider the additional compound presented here.
Quick check: melting point of CCCCCCCCCCOc1ccccc1OCCCCCCCCCC ? 39 to 42 °C

* * *

Each entry below lists one item and its recorded melting point value.

O=Cc1ccc(OCc2ccc(Cl)c(Cl)c2)cc1 :: 92 to 93 °C

Using the record for Cc1cc([N+](=O)[O-])c(Cl)c([N+](=O)[O-])c1 , report its melting point. 114 to 116 °C

Given the compound Brc1cc(Br)c(Oc2ccc(Br)c(Br)c2)c(Br)c1 , what is its reported melting point? 86 to 87 °C

Reported melting point for CN1CCN(c2cccc([N+](=O)[O-])c2)CC1 : what is it? 60 to 62 °C

Fill blank: measured melting point of the compound Nc1ccc(S(=O)(=O)NCCO)cc1 is ____. 97 to 99 °C

Fill in the blank: the reported melting point of c1ccc(C(c2ccccc2)c2ccccn2)cc1 is ____. 54 to 61 °C

For CC1(c2ccccc2)CC(C(=NO)c2cc3ccccc3o2)C1 (stereo not drawn) , what is its reported melting point? 200 to 201 °C

# melting point lookup, item O=S1(=O)CCc2ccccc2CC1 153 to 155 °C

Which melting point is listed for O=C1CCCC(O)=C1Cl ? 198 to 204 °C

Which melting point reading was recorded for the compound O=C(CBr)c1ccc2ccccc2c1 ? 82 to 85 °C

Consider the compound Cc1cc(C)c(NC(=O)C(Br)C(C)(C)C)c(C)c1 (stereo not drawn) and give its measured melting point. 185 to 188 °C

What value of melting point has been recorded for this entry: COC(=O)C1=C(C)NC(=O)NC1c1ccc2c(c1)OCO2 (stereo not drawn) 239 to 241 °C

Would you kindly share the measured melting point for C=CC[Si](c1ccccc1)(c1ccccc1)c1ccccc1 ? 88 to 90 °C

GET /values?readout=melting point&item= Nc1ccc(CN2CCOCC2)cc1 99 to 100 °C

Name the reported melting point value associated with the compound O=Cc1sc(Br)c2c1OCCO2 175 to 176 °C

Look up melting point for this compound: Cc1cc(C)c(C2(C)CC(C(=NNC(N)=S)c3cc4ccccc4o3)C2)c(C)c1 (stereo not drawn) 258 to 259 °C

Look at this compound and give its reported melting point. CSc1sc(C(=O)O)c(-c2cccc(Cl)c2)c1C#N 209 to 211 °C

// query melting point value for entry C1COCCNCCOCCOCCN1 89 to 92 °C

Need melting point, item S=c1[nH]ccn1-c1ccccc1 177 to 179 °C

* * *

This listing pairs molecules with measured melting point.

Here are 4 molecules together with their reported answers.
CCCCc1ccc(NC(C)=O)cc1 :: 107 to 109 °C
CCOC(=O)c1cc2cc3c4c(c2oc1=O)CCCN4CCC3 :: 140 to 144 °C
CSCCC(NC(=O)c1cccnc1SC)C(=O)O (stereo not given) :: 157 to 161 °C
Ic1ccc(N2CCOCC2)cc1 :: 131 to 132 °C

Next, consider the following molecule.
Entry COC(=O)c1ccc(S(=O)(=O)Cl)n1C has what melting point? 79 to 81 °C
